Measured kon values are reported for all entries that follow.
target: T1, human GFRα3 expressed with a C-terminal mFc tag (human)
T1 construct: also called hGFRα3-mFc
T1 chain: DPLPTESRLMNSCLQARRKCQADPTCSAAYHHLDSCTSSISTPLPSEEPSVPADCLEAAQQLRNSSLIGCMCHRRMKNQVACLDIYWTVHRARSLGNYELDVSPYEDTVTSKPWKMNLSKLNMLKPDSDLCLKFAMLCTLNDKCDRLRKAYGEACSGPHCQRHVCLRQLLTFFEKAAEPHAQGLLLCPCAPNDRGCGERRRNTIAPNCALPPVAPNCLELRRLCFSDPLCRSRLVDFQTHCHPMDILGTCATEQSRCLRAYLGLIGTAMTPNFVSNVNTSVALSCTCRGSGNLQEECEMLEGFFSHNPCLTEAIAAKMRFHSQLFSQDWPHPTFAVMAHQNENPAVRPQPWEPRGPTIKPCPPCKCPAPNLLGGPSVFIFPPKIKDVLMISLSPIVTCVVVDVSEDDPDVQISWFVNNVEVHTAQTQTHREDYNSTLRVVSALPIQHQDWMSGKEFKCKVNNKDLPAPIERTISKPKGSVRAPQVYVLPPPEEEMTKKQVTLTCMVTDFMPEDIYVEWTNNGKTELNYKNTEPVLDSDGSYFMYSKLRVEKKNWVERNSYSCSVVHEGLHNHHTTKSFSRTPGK
protocol.description: SPR, Ab captured, 25C
Please respond with the number in M⁻¹ s⁻¹ and leave the unit unwritten.

Example cases with answers are listed next.
binder="H4H2357S (antibody, human IgG4, V domains shown, human IgG4 Fc (H4H)) VH: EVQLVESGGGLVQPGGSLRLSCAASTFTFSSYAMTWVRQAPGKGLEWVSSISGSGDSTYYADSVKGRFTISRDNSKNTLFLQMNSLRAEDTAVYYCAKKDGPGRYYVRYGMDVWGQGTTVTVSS VL: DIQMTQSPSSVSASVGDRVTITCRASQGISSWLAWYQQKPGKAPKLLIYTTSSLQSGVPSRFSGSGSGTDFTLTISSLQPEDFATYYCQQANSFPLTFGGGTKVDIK" reported=779000
binder="H4H2295S (antibody, human IgG4, V domains shown, human IgG4 Fc (H4H)) VH: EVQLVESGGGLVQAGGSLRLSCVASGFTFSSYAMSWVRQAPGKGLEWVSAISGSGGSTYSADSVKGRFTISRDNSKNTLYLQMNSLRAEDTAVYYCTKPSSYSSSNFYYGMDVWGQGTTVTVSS VL: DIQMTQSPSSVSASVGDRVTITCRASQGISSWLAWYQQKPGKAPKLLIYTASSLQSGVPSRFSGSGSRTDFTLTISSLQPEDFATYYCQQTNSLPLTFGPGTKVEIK" reported=1.08e+06

Request: State, in one line, measured kon of H4H2345S (antibody, human IgG4, V domains shown, human IgG4 Fc (H4H)) VH: EVQLVESGGGLVRPGRSLRLSCAASGFTFDNYAMHWVRQVPGKGLEWVSGITWNSVSLGYADSVKGRFTISRDNAQNSLYLQMNSLRTVDTALYYCAKDRWGGSYYFDFWGQGTLVTVSS VL: DIVMTQSPSSLSASVGDRVTITCRASQGISNYLAWYQQKPGKVPKLLIYSASTLQSGVPSRFSGSGSGTDFTLTISNLQPEDFATFFCQKYNSAPTFGGGTKVEIK
Result: 516000

Request: State, in one line, measured kon of H4H2344S (antibody, human IgG4, V domains shown, human IgG4 Fc (H4H)) VH: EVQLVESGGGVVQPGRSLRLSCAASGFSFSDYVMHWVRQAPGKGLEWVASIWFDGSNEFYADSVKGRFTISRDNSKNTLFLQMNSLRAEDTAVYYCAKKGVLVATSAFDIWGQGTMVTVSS VL: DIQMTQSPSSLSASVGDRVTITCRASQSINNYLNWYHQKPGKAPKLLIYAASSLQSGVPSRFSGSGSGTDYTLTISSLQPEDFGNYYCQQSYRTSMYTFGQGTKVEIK
Result: 579000
